# measurementTarget: Chymotrypsin, from human pancreas (Homo sapiens, UniProt P17538)
# Sequence (P17538 19-263): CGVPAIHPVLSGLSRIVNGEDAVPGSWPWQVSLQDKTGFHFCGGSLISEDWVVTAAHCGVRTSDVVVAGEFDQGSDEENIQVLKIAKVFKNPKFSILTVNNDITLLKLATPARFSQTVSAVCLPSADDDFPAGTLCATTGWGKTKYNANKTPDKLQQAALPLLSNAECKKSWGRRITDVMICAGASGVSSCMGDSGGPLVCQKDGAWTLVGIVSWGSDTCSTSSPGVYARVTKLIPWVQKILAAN
# assayText: Enzymatic assay, chymotrypsin
# cond: at 100 μM
Where a SMILES comes first, the peptide text is derived from it.
valueKind: Chymotrypsin at 100 μM %
Answer format reminder: number followed by unit.

Which Chymotrypsin at 100 μM % is reported for this compound? CCCC[C@@H]1NC(=O)[C@H](Cc2ccccc2)NC(=O)[C@H]2CCCN2C(=O)[C@H](Cc2ccc(O)cc2)NC(=O)[C@@H]2CSSC[C@H](NC1=O)C(=O)N[C@@H]([C@@H](C)O)C(=O)N[C@@H](C)C(=O)N[C@@H](CO)C(=O)N[C@@H]([C@@H](C)CC)C(=O)N1CCC[C@H]1C(=O)N1CCC[C@H]1C(=O)N[C@@H](CCC(N)=O)C(=O)N2 [compound 167] (HELM PEPTIDE1{[Nle].C.T.A.S.I.P.P.Q.C.Y.[dP].F}$PEPTIDE1,PEPTIDE1,2:R3-10:R3|PEPTIDE1,PEPTIDE1,1:R1-13:R2$$$V2.0)
60.2%

Which Chymotrypsin at 100 μM % is reported for this compound? CC[C@H](C)[C@@H]1NC(=O)[C@H](C)NC(=O)[C@@H]2CCCN2C(=O)[C@H](CC(=O)O)NC(=O)[C@H](CO)NC(=O)[C@H](CCCCN)NC(=O)[C@H]([C@@H](C)O)NC(=O)[C@@H]2CSSC[C@H](NC1=O)C(=O)N[C@@H](CCCNC(=N)N)C(=O)N1CCC[C@@H]1C(=O)N1CCC[C@H]1C(=O)N[C@@H]([C@@H](C)CC)C(=O)N2 [Ex. 14] (HELM PEPTIDE1{I.C.T.K.S.D.P.A.I.C.R.[dP].P}$PEPTIDE1,PEPTIDE1,2:R3-10:R3|PEPTIDE1,PEPTIDE1,1:R1-13:R2$$$V2.0)
0%

Which Chymotrypsin at 100 μM % is reported for this compound? CCCCCCCC[C@@H]1NC(=O)[C@@H]2CCCN2C(=O)[C@H]2CCCN2C(=O)[C@H](Cc2ccc(O)cc2)NC(=O)[C@H](CCCCN)NC(=O)[C@H](CCC(N)=O)NC(=O)[C@@H]2CCCN2C(=O)[C@@H]2CCCN2C(=O)[C@H]([C@@H](C)CC)NC(=O)[C@H](CO)NC(=O)[C@H](C)NC(=O)[C@H]([C@@H](C)O)NC(=O)[C@H](CCC(=O)O)NC1=O [Ex. 156] (HELM PEPTIDE1{[CCCCCCCC[C@H](N[*:1])C(=O)[*:2]].E.T.A.S.I.P.P.Q.K.Y.[dP].P}$PEPTIDE1,PEPTIDE1,1:R1-13:R2$$$V2.0)
5%

Which Chymotrypsin at 100 μM % is reported for this compound? CCCC[C@@H]1NC(=O)[C@H](CCCNC(=N)N)NC(=O)[C@@H]2CCCN2C(=O)[C@H]2CCCN2C(=O)[C@H](Cc2ccccc2)NC(=O)[C@H](CCCC)NC(=O)[C@H]([C@@H](C)CC)NC(=O)[C@@H]2CCCN2C(=O)[C@@H]2CCCN2C(=O)[C@H](CC(=O)O)NC(=O)[C@H](CO)NC(=O)[C@H](CCCCN)NC(=O)[C@H]([C@@H](C)O)NC1=O [Ex. 8] (HELM PEPTIDE1{R.[Nle].T.K.S.D.P.P.I.[Nle].F.[dP].P}$PEPTIDE1,PEPTIDE1,1:R1-13:R2$$$V2.0)
5.6%
